- Test system: MOLM14;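 also: after 48 h exposure read by CellTiter-Glo luminescence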
- test description: cell viability relative to vehicle control; higher = less cytotoxic
- run parameters: 10 µM; SRSF2 genotype: SRSF2 wt/wt
# Condition met = cell viability below 60% (exclusive); Condition not met = cell viability at/above 60%

molecule	assigned label
CC(=O)CCc1ccccc1 [Benzylacetone]	Condition not met
CCN(CC)c1ccc(C=NNC(=O)c2ccc(O)cc2)cc1	Condition met
COc1cc(C(=O)OCCCCNC(=N)N)cc(OC)c1O [Leonurine]	Condition not met
CCNC(=O)[C@@H]1CCCN1C(=O)[C@H](CCCN=C(N)N)NC(=O)[C@H](CC(C)C)NC(=O)[C@@H](CC(C)C)NC(=O)[C@H](Cc1ccc(O)cc1)NC(=O)[C@H](CO)NC(=O)[C@H](Cc1c[nH]c2ccccc12)NC(=O)[C@H](Cc1cnc[nH]1)NC(=O)[C@@H]1CCC(=O)N1 [S3718 Leuprolide Acetate.cdx]	Condition not met
CNc1cccc(CCOc2ccc3c(c2)CN(CC(F)(F)F)C(=O)[C@H](CC(=O)O)C3)n1	Condition not met
CC(C)=CC(O)C/C(C)=C/COc1c2ccoc2cc2oc(=O)ccc12 (centres undefined) [Notopterol]	Condition met
O=NN(CCCl)C(=O)NC1CCCCC1 [Lomustine (CeeNU)]	Condition not met
CN1CCN(S(=O)(=O)c2ccc(-c3cnc(N)c(C(=O)Nc4cccnc4)n3)cc2)CC1	Condition met
Clc1ccc2c(N3CCN(CCCN4CCN(c5ccnc6cc(Cl)ccc56)CC4)CC3)ccnc2c1 [Piperaquine phosphate]	Condition not met
